# Experimental Details: self-splicing fitness, log relative to wild type (ln ratio); higher = more splicing; Tetrahymena group I intron in knt gene, E. coli kanamycin selection, DiMSum; sequences stand for … in CUCUCU…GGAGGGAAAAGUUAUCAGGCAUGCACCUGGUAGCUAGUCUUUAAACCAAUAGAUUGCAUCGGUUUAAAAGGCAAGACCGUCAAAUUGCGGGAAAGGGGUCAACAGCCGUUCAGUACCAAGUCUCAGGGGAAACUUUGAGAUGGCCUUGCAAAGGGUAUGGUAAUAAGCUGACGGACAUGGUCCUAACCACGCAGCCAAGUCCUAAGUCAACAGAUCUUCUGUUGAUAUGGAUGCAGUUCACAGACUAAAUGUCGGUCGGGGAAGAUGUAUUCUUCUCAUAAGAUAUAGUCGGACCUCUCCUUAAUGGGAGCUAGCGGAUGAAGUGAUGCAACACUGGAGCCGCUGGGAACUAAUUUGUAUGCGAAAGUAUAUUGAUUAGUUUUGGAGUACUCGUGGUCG;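 note: selection with 25 µg/mL kanamycin versus none on LB agar overnight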
# Measurement Context: 30 °C
# if value of self-splicing fitness (ln) reaches -3, tag T; if it stays below, tag F

> print(dat)
   macromolecule.sequence  class.assignment
1    UUAUAGCAAUAUUACGAACA                 T
2    AUUCAGCAAUAUUACGAUCC                 T
3    CCUAAGCAAUAUUACGUUCC                 F
4    UUGGAGCAAUAUUACGGAGC                 T
5    CCGGAGCAAUAUUACGAGUA                 F
6    UGAAAGCAAUAUUACGGAAG                 T
7    AGUAAGCAAUAUUACGAUAG                 F
8    GGUGAGCAAUAUUACGCGUU                 T

These entries and their values trace back to the supplement of paper PMC7877785.
